- ASSAY TARGET: rhodesain (Trypanosoma brucei rhodesiense, UniProt Q95PM0, S297A)
- Sequence (Q95PM0 126-342 S297A): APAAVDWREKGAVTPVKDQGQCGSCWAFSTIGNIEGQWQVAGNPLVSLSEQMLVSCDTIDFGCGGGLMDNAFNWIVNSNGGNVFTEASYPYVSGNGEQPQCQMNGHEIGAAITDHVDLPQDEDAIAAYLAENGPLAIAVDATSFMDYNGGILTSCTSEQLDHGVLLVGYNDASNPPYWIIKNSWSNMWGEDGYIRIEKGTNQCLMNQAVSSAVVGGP
- ASSAY EXPLANATION: Rhodesain inhibition, fluorogenic substrate Cbz-Phe-Arg-AMC
- Format: biochemical
- TEST PARAMETERS: read-out: Ki Rhod.
pKi: −log10 of the molar value.
MEASURED METRIC: pKi

>>> print(df.to_string())
                           structure_string                              assay_target  quantitative_result
0  CC(C)C[C@H](NC(=O)[C@H](Cc1ccccc1)NC(=O)c1cccc([N+](=O)[O-])c1F)C(=O)OCc1ccccc1  rhodesain (Trypanosoma brucei rhodesiense, UniProt Q95PM0, S297A)                 6.54

###

- ASSAY TARGET: cathepsin B (Homo sapiens, UniProt P07858)
- ASSAY EXPLANATION: biochemical
- TEST PARAMETERS: read-out: % inhibition of Cath. B
Label false if inhibition at 20 µM falls below 20%; label true in every other case.

>>> print(df.to_string())
                           structure_string  classification
0  CC(C)C[C@H](NC(=O)[C@H](Cc1ccccc1)Nc1cc(Cl)ncn1)C(=O)OCc1ccccc1            true
1  CC(C)C[C@H](NC(=O)[C@H](Cc1ccccc1)Nc1cc([N+](=O)[O-])c([N+](=O)[O-])cc1F)C(=O)OCc1ccccc1            true
2  CC(C)C[C@H](NC(=O)[C@H](Cc1ccccc1)NC(=O)c1ccc(Cl)nc1Cl)C(=O)OCc1ccccc1           false
3  CC(C)C[C@H](NC(=O)[C@H](Cc1ccccc1)Nc1cc(F)c([N+](=O)[O-])cc1[N+](=O)[O-])C(=O)OCc1ccccc1            true
4  CC(C)C[C@H](NC(=O)[C@H](Cc1ccccc1)NC(=O)Nc1ccc(F)c([N+](=O)[O-])c1)C(=O)OCc1ccccc1           false
5  CC(C)C[C@H](NC(=O)[C@H](Cc1ccccc1)NC(=O)c1cc([N+](=O)[O-])ccc1F)C(=O)OCc1ccccc1            true

###

- ASSAY TARGET: cathepsin L (Homo sapiens)
pKi: −log10 of the molar value.
MEASURED METRIC: pKi

>>> print(df.to_string())
                                   compound  quantitative_result
0  CC(C)C[C@H](NC(=O)[C@H](Cc1ccccc1)Nc1cc([N+](=O)[O-])c([N+](=O)[O-])cc1F)C(=O)O [Compound 8]                 5.52
1  CC(C)C[C@H](NC(=O)[C@H](Cc1ccccc1)NC(=O)c1cccc([N+](=O)[O-])c1F)C(=O)OCc1ccccc1 [Compound 4]                 6.18
2  CC(C)C[C@H](NC(=O)[C@H](Cc1ccccc1)Nc1cc([N+](=O)[O-])c([N+](=O)[O-])cc1F)C(=O)OCc1ccccc1 [Compound 7]                 5.80

###

- ASSAY TARGET: cathepsin L (Homo sapiens, UniProt P07711)
- Sequence (P07711 114-333): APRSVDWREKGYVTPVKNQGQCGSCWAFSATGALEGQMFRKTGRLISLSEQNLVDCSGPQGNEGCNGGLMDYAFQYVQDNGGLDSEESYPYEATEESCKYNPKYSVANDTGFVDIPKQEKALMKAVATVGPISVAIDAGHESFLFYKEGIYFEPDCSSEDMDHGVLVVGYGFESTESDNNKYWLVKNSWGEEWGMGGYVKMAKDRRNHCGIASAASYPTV
- ASSAY EXPLANATION: biochemical
- TEST PARAMETERS: read-out: % inhibition of Cath. L
MEASURED METRIC: inhibition at 20 µM (%)

                           structure_string                              assay_target  quantitative_result
0  CC(C)C[C@H](NC(=O)[C@H](Cc1ccccc1)Nc1cc(F)c([N+](=O)[O-])cc1[N+](=O)[O-])C(=O)OCc1ccccc1  cathepsin L (Homo sapiens, UniProt P07711)                   60
1  CC(C)C[C@H](NC(=O)[C@H](Cc1ccccc1)NC(=O)Nc1ccc(F)c([N+](=O)[O-])c1)C(=O)OCc1ccccc1  cathepsin L (Homo sapiens, UniProt P07711)                    8
2  CC(C)C[C@H](NC(=O)[C@H](Cc1ccccc1)NC(=O)c1cc([N+](=O)[O-])ccc1F)C(=O)OCc1ccccc1  cathepsin L (Homo sapiens, UniProt P07711)                   50
3  CC(C)C[C@H](NC(=O)[C@H](Cc1ccccc1)Nc1cc(Cl)ncn1)C(=O)OCc1ccccc1  cathepsin L (Homo sapiens, UniProt P07711)                   56
4  CC(C)C[C@H](NC(=O)[C@H](Cc1ccccc1)Nc1cc([N+](=O)[O-])c([N+](=O)[O-])cc1F)C(=O)OCc1ccccc1  cathepsin L (Homo sapiens, UniProt P07711)                   98
5  CC(C)C[C@H](NC(=O)[C@H](Cc1ccccc1)NC(=O)c1ccc(Cl)nc1Cl)C(=O)OCc1ccccc1  cathepsin L (Homo sapiens, UniProt P07711)                   57
6  CC(C)C[C@H](NC(=O)[C@H](Cc1ccccc1)NC(=O)c1cccc([N+](=O)[O-])c1F)C(=O)OCc1ccccc1  cathepsin L (Homo sapiens, UniProt P07711)                   99
